assayed system: MCR-4 (Homo sapiens)
Construct: expressed in transfected cells; host or cells: HEK 293
Sequence (P32245 whole entry): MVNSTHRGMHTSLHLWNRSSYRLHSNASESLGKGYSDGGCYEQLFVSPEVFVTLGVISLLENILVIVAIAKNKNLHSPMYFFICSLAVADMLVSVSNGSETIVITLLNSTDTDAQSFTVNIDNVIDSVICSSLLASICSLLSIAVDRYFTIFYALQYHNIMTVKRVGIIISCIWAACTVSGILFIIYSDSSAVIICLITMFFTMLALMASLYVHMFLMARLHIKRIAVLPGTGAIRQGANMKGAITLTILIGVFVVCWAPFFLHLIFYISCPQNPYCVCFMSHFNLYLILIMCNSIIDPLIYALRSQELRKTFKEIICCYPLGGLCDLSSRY
assay details: Melanocortin receptor binding assay, competition with 125I-HP 467, HEK 293 cells expressing hMCR-4
experimental setup: competition with 125I-HP 467, HEK 293 cells expressing MCR-4; read-out: MC-4 IC50
Procedure: All cell culture media and reagents were obtained from GibcoBRL (Gaithersburg Md.), except for COSMIC CALF SERUM (HyClone; Logan Utah). Cells were suspended in PBS, 10% COSMIC CALF SERUM and 1 mM CaCl2. […] To assay isoquinoline compounds, binding assays were performed in duplicate in a 96 well format. […] Cells were harvested on GF/B filter plates as described above and counted.
pIC50: −log10 of the molar value.
Recorded pIC50, one value per entry.

>  <compound>
CCCCNc1ccc(C2C(CNCCc3ccccc3)c3ccccc3CN2CCCCC(CN)NCc2ccc(Cl)cc2)cc1 (stereo not shown)

>  <assayed system>
MCR-4 (Homo sapiens)

>  <pIC50>
5.86

$$$$
>  <compound>
CNC(CN)CCCCN1Cc2ccccc2C(CNC2CCCCC2)C1c1ccc(NCc2ccc(Cl)cc2)cc1 (stereo not shown)

>  <assayed system>
MCR-4 (Homo sapiens)

>  <pIC50>
4.92

$$$$
>  <compound>
NCC(CCCN1Cc2ccccc2C(CNCCc2ccccc2)C1c1ccc(-c2ccccc2)cc1)NCc1ccccc1 (stereo not shown)

>  <assayed system>
MCR-4 (Homo sapiens)

>  <pIC50>
5.83

$$$$
>  <compound>
CCCCNc1ccc(C2C(CN)c3ccccc3CN2CCCC(CN)NCCc2ccc(OC)cc2)cc1 (stereo not shown)

>  <assayed system>
MCR-4 (Homo sapiens)

>  <pIC50>
6.20

$$$$
